Quick reference for pKd among some binders
target_or_system: T1, BMP-9 (UniProt Q9UK05 320-429)
T1 construct: also called bone morphogenetic protein 9
T1 sequence (looked up): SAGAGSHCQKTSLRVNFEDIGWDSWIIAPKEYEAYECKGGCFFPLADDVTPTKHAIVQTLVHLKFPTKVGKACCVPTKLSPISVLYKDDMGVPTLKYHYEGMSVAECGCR
assay_procedure: SPR (Biacore 3000), receptor captured on chip, ligand in solution
# pKd: negative log10 of molar concentration; output just the value

# binder, val
data = [
    ("ActRIIa/bΔ9 min variant (SEQ ID NO: 6) (receptor, Engineered extracellular ActRIIa variant; not shown: Fusion partner and its linker) GAILGRSETQECLFYNANWELDRTNQTGVEPCEGEKDKRLHCFATWKNISGSIEIVKKGCWLDDINCYDRTDCVETKENPQVYFCCCEGNMCNEKFSYFPEMEVTQPTS", 7.77),
]

Suppose we examine the binder ActRIIa/bΔ9 variant (SEQ ID NO: 58) (receptor, Engineered extracellular ActRIIa variant; not shown: Fusion partner and its linker) GAILGRSETQECLFYNANWELDRTNQTGVERCEGEKDKRLHCYATWRNISGSIEIVKKGCWLDDFNCYDRTDCVETKENPQVYFCCCEGNMCNEKFSYFPEMEVTQPTS ; what pKd value has been reported?
8.00
